test system: EB–DNA adduct (CT DNA); experiment: Competitive study with EB (EB–DNA fluorescence quenching); assay type: binding, calf; conditions: EB–DNA adduct
reported-metric: Ksv, Stern–Volmer constant

Example cases with answers are listed next.
* CN1CCN(c2c(F)cc3c(=O)c(C(=O)[O-])cn(CCF)c3c2F)CC1.CN1CCN(c2c(F)cc3c(=O)c(C(=O)[O-])cn(CCF)c3c2F)CC1.[Mn+2].c1cnc2c(c1)ccc1cccnc12 [complex 11, [Mn(flrx)2(phen)]] | 1.83(±0.03) × 10^5 M^–1
* CN1CCN(c2c(F)cc3c(=O)c(C(=O)[O-])cn(CCF)c3c2F)CC1.CN1CCN(c2c(F)cc3c(=O)c(C(=O)[O-])cn(CCF)c3c2F)CC1.[Zn+2].c1ccc(Nc2ccccn2)nc1 [complex 13, [Zn(flrx)2(bipyam)]] | 6.51(±0.19) × 10^5 M^–1
* CN1CCN(c2c(F)cc3c(=O)c(C(=O)[O-])cn(CCF)c3c2F)CC1.CN1CCN(c2c(F)cc3c(=O)c(C(=O)[O-])cn(CCF)c3c2F)CC1.[Zn+2].c1cnc2c(c1)ccc1cccnc12 [complex 14, [Zn(flrx)2(phen)]] | 3.03(±0.05) × 10^5 M^–1
* CN1CCN(c2c(F)cc3c(=O)c(C(=O)[O-])cn(CCF)c3c2F)CC1.[Cl-].[Cu+2].c1ccc(-c2ccccn2)nc1 [complex 6, [Cu(flrx)(bipy)Cl]] | 2.03(±0.05) × 10^5 M^–1
* CN1CCN(c2c(F)cc3c(=O)c(C(=O)[O-])cn(CCF)c3c2F)CC1.CN1CCN(c2c(F)cc3c(=O)c(C(=O)[O-])cn(CCF)c3c2F)CC1.[Mn+2].c1ccc(-c2ccccn2)nc1 [complex 9, [Mn(flrx)2(bipy)]] | 3.31(±0.07) × 10^5 M^–1

Report Ksv, Stern–Volmer constant for every entry below.
1. CN1CCN(c2c(F)cc3c(=O)c(C(=O)[O-])cn(CCF)c3c2F)CC1.CN1CCN(c2c(F)cc3c(=O)c(C(=O)[O-])cn(CCF)c3c2F)CC1.CO.CO.[Zn+2] [complex 3, [Zn(flrx)2(MeOH)2]]
2. CN1CCN(c2c(F)cc3c(=O)c(C(=O)[O-])cn(CCF)c3c2F)CC1.CN1CCN(c2c(F)cc3c(=O)c(C(=O)[O-])cn(CCF)c3c2F)CC1.[Co+2].c1ccc(Nc2ccccn2)nc1 [complex 16, [Co(flrx)2(bipyam)]]
3. CN1CCN(c2c(F)cc3c(=O)c(C(=O)[O-])cn(CCF)c3c2F)CC1.CN1CCN(c2c(F)cc3c(=O)c(C(=O)[O-])cn(CCF)c3c2F)CC1.[Cu+2] [complex 1, [Cu(flrx)2]]
4. CN1CCN(c2c(F)cc3c(=O)c(C(=O)[O-])cn(CCF)c3c2F)CC1.CN1CCN(c2c(F)cc3c(=O)c(C(=O)[O-])cn(CCF)c3c2F)CC1.[Zn+2].c1ccc(-c2ccccn2)nc1 [complex 12, [Zn(flrx)2(bipy)]]
5. CN1CCN(c2c(F)cc3c(=O)c(C(=O)[O-])cn(CCF)c3c2F)CC1.CN1CCN(c2c(F)cc3c(=O)c(C(=O)[O-])cn(CCF)c3c2F)CC1.CO.CO.[Co+2] [complex 4, [Co(flrx)2(MeOH)2]]

Response:
6.07(±0.17) × 10^5 M^–1
3.77(±0.12) × 10^5 M^–1
2.18(±0.06) × 10^5 M^–1
7.25(±0.30) × 10^5 M^–1
1.36(±0.03) × 10^5 M^–1

This collection of values is drawn from paper PMC9144902.
